Data origin: ChEMBL document CHEMBL4842357

testedTarget: Poly [ADP-ribose] polymerase 1 (Homo sapiens)
Sequence (P09874 whole entry): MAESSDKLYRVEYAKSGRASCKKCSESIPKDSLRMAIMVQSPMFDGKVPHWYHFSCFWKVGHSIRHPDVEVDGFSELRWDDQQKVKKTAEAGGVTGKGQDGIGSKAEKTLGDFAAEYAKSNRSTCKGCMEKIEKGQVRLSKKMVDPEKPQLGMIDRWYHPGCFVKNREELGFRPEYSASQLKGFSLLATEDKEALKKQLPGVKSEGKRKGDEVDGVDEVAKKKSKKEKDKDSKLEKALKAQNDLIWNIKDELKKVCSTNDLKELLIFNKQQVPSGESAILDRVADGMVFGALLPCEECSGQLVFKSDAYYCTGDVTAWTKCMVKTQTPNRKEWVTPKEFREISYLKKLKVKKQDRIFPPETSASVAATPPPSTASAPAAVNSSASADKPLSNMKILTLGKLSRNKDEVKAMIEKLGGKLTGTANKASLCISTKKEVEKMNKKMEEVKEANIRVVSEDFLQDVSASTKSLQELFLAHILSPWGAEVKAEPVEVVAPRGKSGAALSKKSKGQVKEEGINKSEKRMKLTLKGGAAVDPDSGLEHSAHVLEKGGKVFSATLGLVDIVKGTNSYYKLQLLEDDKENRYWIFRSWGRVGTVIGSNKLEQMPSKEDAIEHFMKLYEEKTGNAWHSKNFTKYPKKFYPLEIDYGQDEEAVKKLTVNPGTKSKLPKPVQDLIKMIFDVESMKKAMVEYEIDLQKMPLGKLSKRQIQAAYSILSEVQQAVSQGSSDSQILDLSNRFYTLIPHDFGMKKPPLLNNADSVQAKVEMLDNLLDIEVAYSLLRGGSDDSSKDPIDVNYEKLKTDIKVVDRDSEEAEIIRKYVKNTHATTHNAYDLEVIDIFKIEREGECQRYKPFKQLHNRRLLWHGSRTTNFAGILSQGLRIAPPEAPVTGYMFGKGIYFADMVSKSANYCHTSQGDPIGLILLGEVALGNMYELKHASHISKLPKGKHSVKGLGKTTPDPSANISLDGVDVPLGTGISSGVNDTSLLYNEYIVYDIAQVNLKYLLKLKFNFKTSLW
runDescription: Inhibition of PARP-1 (unknown origin)
valueKind: IC50 (nM)
Note: unit nM is implicit; provide only the numeric part.

Quick check: IC50 of O=c1cc(-c2ccc(O)c(-c3c(O)cc(O)c4c(=O)cc(-c5ccc(O)cc5)oc34)c2)oc2cc(O)cc(O)c12 [AMENTOFLAVONE] ?
0.2

###

Species on record: Homo sapiens
runDescription: Selectivity index, ratio of IC50 for inhibition of recombinant human full-length PARP-2 to IC50 for inhibition of recombinant human full-length PARP-1
Each item that follows carries a reported Ratio IC50.
Would you mind answering with just the numeric figure?

Cc1ccc(-c2cc(=O)c3c(O)cc(O)c(-c4cccc(-c5cc(=O)c6c(O)cc(O)cc6o5)c4)c3o2)cc1 ... 42.2
O=C(c1cccc(F)c1F)C1CCN(Cc2c(O)cc(O)c3c(=O)cc(-c4ccc(O)cc4)oc23)CC1 ... 56.8
O=C(c1ccccn1)N1CCN(Cc2c(O)cc(O)c3c(=O)cc(-c4ccc(O)cc4)oc23)CC1 ... 59.6

Bench note: what Ratio IC50 did O=C(C1CC1)N1CCN(Cc2c(O)cc(O)c3c(=O)cc(-c4ccc(O)cc4)oc23)CC1 show?
66.7

Subsequent entry: O=c1cc(-c2ccc(O)cc2)oc2c(CN3CCN(c4ccccc4)CC3)c(O)cc(O)c12
59

What do you get for O=c1cc(-c2ccc(O)cc2)oc2c(CN3CCN(Cc4cccs4)CC3)c(O)cc(O)c12 ?
61.2

Input O=c1cc(-c2ccc(O)cc2)oc2c(CN3CCN(Cc4ccncc4)CC3)c(O)cc(O)c12
55.5

CCOC(=O)C1CCN(Cc2c(O)cc(O)c3c(=O)cc(-c4ccc(O)cc4)oc23)CC1 ?
60.3

// query: Cc1cc(C)cc(COC(=O)N2CCN(Cc3c(O)cc(O)c4c(=O)cc(-c5ccc(O)cc5)oc34)CC2)c1
57.8
